assay explanation: NCI Yeast Anticancer Drug Screen. Data for the mec2-1 strain (AID 157)
condition label: S. cerevisiae mec2-1 strain, at 5.0 µM (retest, dose inferred, filed as 0.5)
The panel holds about 79,000 compounds, 15% with a hit somewhere; the sample as a whole holds those more often. Calls of active or inactive are those of the source. Rule as the data show it: active = growth inhibition above about 70%; inactive = the rest.
Bench note: report the call from active, inactive

Reference set (2 entries):
O=P(N=P(c1ccccc1)(c1ccccc1)c1ccccc1)(c1ccccc1)c1ccccc1    inactive
Clc1ccc(CN2COc3c(cc(Cl)c4cccnc34)C2)cc1Cl    inactive

Can you look up the reported call for `O=S(=O)(Sc1ccccc1)C(c1ccccc1)c1ccccc1` for me?
inactive

Param item: `COCc1ccc([N+](=O)[O-])o1`
inactive

Then what about the molecule `Nc1ccc(O)c2ccccc12` ?
inactive

Quick one: CC1CCC2(CC1)NC1=C(CC(C)CC1)C1=C2CC(C)CC1 (centres undefined)
inactive

Check O=C(NCCCCCCNC(=O)n1cc(F)c(=O)[nH]c1=O)NC1C(O)OC(CO)C(O)C1O (centres undefined) too.
active

Another: `CCc1nc(N)nc(N)c1-c1ccc(NCCCCCCCCCCCCN)c([N+](=O)[O-])c1`
inactive

And for `O=c1nc(N2CCCC2)nc(N2CCCC2)s1` ?
inactive

---

Known growth inhibition of a selection of compounds
assay explanation: NCI Yeast Anticancer Drug Screen. Data for the bub3 strain (AID 167)
condition label: S. cerevisiae bub3 mutant strain, at 50.0 µM, stronger effect = higher value
Compounds without any hit were thinned out: in the full panel of roughly 79,000, 15% have a hit.
Give the value in % but do not write % after it.

Before answering, review these 4 worked examples.
CCCCCN(CCCCC)CC(=O)OCC1(C)CCCC2(C)C3CCC(C(C)C)=CC3=CCC12 (stereo not given)    -8.05
CCN1CCNc2c3cc(OC)ccc3nc3c([N+](=O)[O-])ccc1c23    -3.6
CSc1cccc(N2C(=O)C=CC2=O)c1    92.7
CCCCC#CCCOC(=O)C#CCCCC    -21.3

Okay, next one:
Which growth inhibition is listed for CCC(Cl)COP(=O)(OC(c1ccc(Cl)c(Cl)c1)P(=O)(OCC(Cl)CC)OCC(Cl)CC)C(CC)CCl (stereo not given) ?
79.5

---

assay explanation: NCI Yeast Anticancer Drug Screen. Data for the cln2 rad14 strain (AID 165);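 also: 0% = growth equal to vehicle treated cultures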
condition label: S. cerevisiae cln2 rad14 strain, at 5.0 µM (retest, dose inferred, filed as 0.5)
This is part of a sample that, as a whole, favours compounds with a hit. Of some 79,000 tested, about 15% had one in any assay. Calls of active or inactive are those of the source. No stated cut-off is given here; in the data, active means growth inhibition above about 70%; inactive means the rest.
Mark one answer only. Choices: active, inactive

Here's what some known entries look like.
CC(C)(C)OC(=O)c1ccc(NCC2=C(Br)C(=O)C=CC2=O)cc1    inactive
CCCCCCCCCCCCNCc1ccc2c(c1)OCO2    active

Now take the following molecule into account.
Can you look up the reported call for `CC[N+](C)(CC)CCC[n+]1c(-c2ccccc2)c2cc(N)ccc2c2ccc(N)cc21` for me?
inactive

---

assay explanation: NCI Yeast Anticancer Drug Screen. Data for the mec2-1 strain (AID 157)
condition label: S. cerevisiae mec2-1 strain, at 50.0 µM
The panel holds about 79,000 compounds, 15% with a hit somewhere; the sample as a whole holds those more often. Calls of active or inactive are those of the source. No stated cut-off is given here; in the data, active means growth inhibition above about 70%; inactive means the rest.
Outcome field: choose from 1 (yes) for active, 0 (no) for inactive

CC(=O)OC1COC(n2ccc3cc(Br)c([N+](=O)[O-])cc32)C(OC(C)=O)C1OC(C)=O (configuration not stated)    0 (no)

So what was the verdict on `O=C(COc1ccc2ccccc2c1)NC1c2ccccc2Oc2ccccc21` in this test?
0 (no)

Input C=C1C(=O)OC(CCCCCCCCCCCCC)C1C(=O)O (configuration not stated)
1 (yes)

Again, but for `CN(C)c1ccc(/C=C(\C#N)c2cccc(Cl)c2)cc1`
0 (no)

Cool, now `CCc1cccc(C)c1NC(=O)/C(Cl)=C(\Cl)C(=O)O`
1 (yes)

Could you do the same for `O=C(n1c2ccccc2c2n[nH]c(=S)nc21)C(F)(F)F` , please?
0 (no)

Query `COCc1ccc([N+](=O)[O-])o1` next
0 (no)

And the next one, `Oc1cccc2ccc(SSc3ccc4cccc(O)c4n3)nc12` ?
1 (yes)

Entry `CCOc1ccc2nc([NH-])sc2c1.CCOc1ccc2nc([NH-])sc2c1.CCOc1ccc2nc([NH-])sc2c1.CCOc1ccc2nc([NH-])sc2c1.[Cl][Rh][Cl]` please
0 (no)

Same question for `S=c1c2cn[nH]c2nc2scc(-c3ccc(Cl)cc3)n12` please.
0 (no)

Subsequent entry: `CN(C)Cc1ccc2c(c1)c1c(n2Cc2ccccc2)CCCC1`
1 (yes)

// query: `CCCCC(O)CCCC`
0 (no)

---

assay explanation: NCI Yeast Anticancer Drug Screen. Data for the mlh1 rad18 strain (AID 175)
condition label: S. cerevisiae mlh1 rad18 strain growth inhibition; at 5.0 µM (retest, dose inferred, filed as 0.5)
About 79,000 compounds went through this panel and 15% of them were active in at least one assay; those are over-represented in the sample as a whole. Calls of active or inactive are those of the source. No stated cut-off is given here; in the data, active means growth inhibition above about 70%; inactive means the rest.
Can you answer with just one of these options? active, inactive

Example entries begin here.
Clc1ccc(-c2nnc(-c3ccccn3)o2)c(Cl)c1    inactive
CC(NNC(=S)N1CCCCCC1)c1cc2ccccc2cn1 (stereo unspecified)    inactive
O=c1c(Cl)nsnc1Cl    active
CC(O)(CO)CC(C)(O)CO (stereo unspecified)    inactive
Brc1ccc2[nH]c3ccccc3c2c1    inactive

# outcome recorded in this test, key = CCCCN(CCCC)CC(O)c1ccc(CCc2ccccc2)cc1 (stereo unspecified)
inactive

---

Measured growth inhibition accompanies every entry in the list below.
assay explanation: NCI Yeast Anticancer Drug Screen. Data for the mec2-1 strain (AID 157)
condition label: S. cerevisiae mec2-1 strain, at 50.0 µM (retest, dose inferred, filed as 5.0), stronger effect = higher value
About 79,000 compounds went through this panel and 15% of them were active in at least one assay; those are over-represented in the sample as a whole. Active and inactive are the calls of the source. No stated cut-off is given here; in the data, active means growth inhibition above about 70%; inactive means the rest.

Some solved cases for reference:
O=C1C=CC(=O)N1c1ccccc1 (tested in a mixture with another compound)    32% (inactive)
CN=C(N)NN=C(c1ccc(Cl)cc1)c1ccc(Cl)cc1    99% (active)
CCCCNC(=O)OCc1c(COC(=O)NCCCC)c(-c2ccc(Cl)c(Cl)c2)n2c1CCC2    99% (active)
CCN(CC)CCCNc1cc(C)nc2c1ccc1c2ccc2c(NCCCN(CC)CC)cc(C)nc21    75% (active)
CC(/C=C1\CCC(CN(C)C)C1=O)c1cccc(Br)c1 (stereo unspecified)    99% (active)

Which growth inhibition is reported for this compound? `COc1ccc(CSC(=S)Nc2ccc(Cl)cc2Cl)cc1`
99% (active)

Queued: CCCCCCCCCCCCCCCCOCC(Cl)COP(=O)(O)OP(=O)(O)OCC1OC(n2cc(C)c(=O)[nH]c2=O)CC1O (stereo unspecified)
94% (active)

Repeat with CCc1cccc(C)c1N1C(=O)C(=O)C(c2nc3ccccc3o2)/C(=N\NS(=O)(=O)c2ccc(C)cc2)C1=O (stereo unspecified)
34% (inactive)

Repeat for the following compound: `O=C1CSC(=S)N1Cc1ccccc1Cl`
97% (active)

Try `Oc1ccc2cc(Br)ccc2c1O` next.
97% (active)

Can you check CC(NC(=O)OCc1ccccc1)C(=O)NNc1ccccc1Cl (stereo unspecified) next?
99% (active)

Could you do the same for OCC(c1ccccc1)[P+](c1ccccc1)(c1ccccc1)c1ccccc1 (stereo unspecified) , please?
45% (inactive)

Next compound: `N#CSC#CCCC#CSC#N`
55% (inactive)

C=CCOC(=O)CC(O)C(=O)OCC=C (stereo unspecified) , same question.
-2% (inactive)

Repeat for the following compound: `CC(=O)CC(C)=NCCN=C(C)CC(C)=O.[Pd]`
78% (active)

Check `C=CC(=O)N1C/C(=C\c2ccc([N+](=O)[O-])cc2)C(=O)/C(=C/c2ccc([N+](=O)[O-])cc2)C1` too.
97% (active)

---

assay explanation: NCI Yeast Anticancer Drug Screen. Data for the mlh1 rad18 strain (AID 175)
condition label: S. cerevisiae mlh1 rad18 strain growth inhibition; at 5.0 µM (retest, dose inferred, filed as 0.5)
This is part of a sample that, as a whole, favours compounds with a hit. Of some 79,000 tested, about 15% had one in any assay. Activity calls are given as the source filed them. Rule as the data show it: active = growth inhibition above about 70%; inactive = the rest.
The reply should name one outcome from active, inactive

Worked examples follow.
CC1(C)C/C(=N/NC(N)=S)C(=NO)/C(=N\NC(N)=S)C1    inactive
CC1(C)C(=O)N(CCCCCCN2C(=O)C(C)(C)c3ccccc32)c2ccccc21    inactive
Nc1nc(-c2ccccc2)c(N=Nc2c(Cl)cccc2Cl)s1    inactive

Now, please, on to the next compound.
So what was the verdict on O=C(c1ccccc1)C(Br)CCCC(Br)C(=O)c1ccccc1 (stereo not drawn) in this test?
inactive
